Biological target: full length human TREX1 (Homo sapiens, UniProt Q9NSU2)
Construct: N-terminally His-Tev tagged full length human TREX1; His-TEV (His tag with TEV site) (N)
Sequence (Q9NSU2 whole entry): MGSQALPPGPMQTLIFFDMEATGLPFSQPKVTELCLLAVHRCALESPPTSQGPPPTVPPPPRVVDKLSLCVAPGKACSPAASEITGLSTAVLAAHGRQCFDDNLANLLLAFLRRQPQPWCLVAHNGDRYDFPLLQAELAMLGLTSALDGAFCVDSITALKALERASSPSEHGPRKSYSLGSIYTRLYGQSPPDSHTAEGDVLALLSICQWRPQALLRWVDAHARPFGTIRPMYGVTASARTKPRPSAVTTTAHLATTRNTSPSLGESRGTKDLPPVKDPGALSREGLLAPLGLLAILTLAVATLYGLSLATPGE
Experiment: TREX1 Biochemical Assay (fluorescence, dsDNA substrate degradation)
Details: 150 pM TREX1, 60 nM dsDNA substrate, 25 minutes at room temperature
pIC50: −log10 of the molar value.
observable: pIC50

| molecule | pIC50 |
| --- | --- |
| CC(C)N(Cc1ccccc1)c1nc(C(=O)Nc2cnoc2)c(O)c(=O)n1C [Example 29] | > 7.00 |
| CN(Cc1cnn(C)c1)c1nc(C(=O)Nc2cnoc2)c(O)c(=O)n1C [Example 33] | 6.00 to 7.00 |
| Cc1cccnc1C(c1ccccc1)N(C)c1nc(C(=O)Nc2cnoc2)c(O)c(=O)n1C (single isomer, unassigned) [Example 58] | > 7.00 |
| CN(c1nc(C(=O)Nc2cnoc2)c(O)c(=O)n1C)C(c1ccccc1)c1cccc(C#N)c1 (single isomer, unassigned) [Example 50] | > 7.00 |
| CN1CCC(C(c2ccccc2)N(C)c2nc(C(=O)Nc3cnoc3)c(O)c(=O)n2C)CC1 (stereo not shown) [Example 49] | 6.00 to 7.00 |

input: Consider the molecule Cc1cccc(Cl)c1C(c1ccccn1)N(C)c1nc(C(=O)Nc2cnoc2)c(O)c(=O)n1C (single isomer, unassigned) [Example 62] and give its measured pIC50.
output: > 7.00

input: // lookup pIC50 for CN(c1nc(C(=O)Nc2cnoc2)c(O)c(=O)n1C)C(c1ccccc1)C1CCOCC1 (single isomer, unassigned) [Example 45]
output: > 7.00

* * *

Measured pIC50, listed per entry for reference.
Biological target: human TREX2 (residues M44-A279) (Homo sapiens)
Construct: human TREX2 (residues M44-A279, expressed in E. coli); His-TEV (His tag with TEV site) (N)
Sequence (Q9BQ50 whole entry, the tested form may be a part): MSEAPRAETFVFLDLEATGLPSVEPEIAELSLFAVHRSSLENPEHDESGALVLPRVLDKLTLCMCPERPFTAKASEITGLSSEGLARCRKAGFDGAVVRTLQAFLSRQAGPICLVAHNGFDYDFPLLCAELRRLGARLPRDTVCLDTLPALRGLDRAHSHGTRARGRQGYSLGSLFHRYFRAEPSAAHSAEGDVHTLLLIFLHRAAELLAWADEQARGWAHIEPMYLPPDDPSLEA
Assay: TREX2 Biochemical Assay (fluorescence, dsDNA substrate degradation)
Conditions: 2.5 nM TREX2, 60 nM dsDNA substrate, 25 minutes at room temperature
pIC50: −log10 of the molar value.

# annotated cases, reported pIC50 shown
| compound | test_value |
| --- | --- |
| CN(C)C(=O)c1ccc(C(c2ccccc2)N(C)c2nc(C(=O)Nc3cnoc3)c(O)c(=O)n2C)c(Cl)c1 (single isomer, unassigned) [Example 93] | 5.00 to 6.00 |
| CN(C)C(=O)c1ccc(C(c2ccccc2)N(C)c2nc(C(=O)Nc3cnoc3)c(O)c(=O)n2C)c(Cl)c1 (single isomer, unassigned) [Example 94] | > 6.00 |
| CN(Cc1ccc(-c2cnn(C)c2)cc1)c1nc(C(=O)Nc2cnoc2)c(O)c(=O)n1C | 5.00 to 6.00 |
| CN(c1nc(C(=O)Nc2cnoc2)c(O)c(=O)n1C)C(c1ccccc1)c1cc(F)ccc1Cl (single isomer, unassigned) [Example 88] | > 6.00 |

input: Notebook entry, human TREX2 (residues M44-A279) (Homo sapiens) assay: pIC50 of CC(=O)N1CCC(N(C)c2nc(C(=O)Nc3cnoc3)c(O)c(=O)n2C)CC1 = ?
output: 4.00 to 5.00

input: Request - read-out pIC50 | tested on human TREX2 (residues M44-A279) (Homo sapiens) | compound Cc1cccnc1C(c1ccccc1)N(C)c1nc(C(=O)Nc2cnoc2)c(O)c(=O)n1C (single isomer, unassigned) [Example 58]
output: 5.00 to 6.00

input: Any idea what pIC50 came out for CN(Cc1cc(Cl)ccc1Cl)c1nc(C(=O)Nc2cnoc2)c(O)c(=O)n1C on human TREX2 (residues M44-A279) (Homo sapiens)?
output: 5.00 to 6.00

input: What is its pIC50 for human TREX2 (residues M44-A279) (Homo sapiens)? Entry: Cc1csc(CN(C)c2nc(C(=O)Nc3cnoc3)c(O)c(=O)n2C)n1
output: 5.00 to 6.00

input: // map Cc1cc(C(c2ccccc2Cl)N(C)c2nc(C(=O)Nc3cnoc3)c(O)c(=O)n2C)ccn1 (single isomer, unassigned) [Example 90] to recorded pIC50 (system: human TREX2 (residues M44-A279) (Homo sapiens))
output: > 6.00

input: API: value(readout=pIC50, system=human TREX2 (residues M44-A279) (Homo sapiens)) for record Cc1nn(C)cc1-c1cnc(CN(C)c2nc(C(=O)Nc3cnoc3)c(O)c(=O)n2C)cn1
output: 5.00 to 6.00

input: Missing value: pIC50, human TREX2 (residues M44-A279) (Homo sapiens), entry CN(CCc1ccccc1)c1nc(C(=O)Nc2cnoc2)c(O)c(=O)n1C . Fill in?
output: 4.00 to 5.00

input: Give recorded pIC50 with human TREX2 (residues M44-A279) (Homo sapiens) for the following compound: Cc1ccc(C(c2ccccc2)N(C)c2nc(C(=O)Nc3cnoc3)c(O)c(=O)n2C)cn1 (single isomer, unassigned) [Example 43]
output: > 6.00

input: Kindly state the measured pIC50 obtained for CN(c1nc(C(=O)Nc2cnoc2)c(O)c(=O)n1C)C1CCCCC1 with human TREX2 (residues M44-A279) (Homo sapiens).
output: 5.00 to 6.00

input: Give recorded pIC50 with human TREX2 (residues M44-A279) (Homo sapiens) for the following compound: Cc1ncc(C(c2ccccc2Cl)N(C)c2nc(C(=O)Nc3cnoc3)c(O)c(=O)n2C)cn1 (single isomer, unassigned) [Example 81]
output: > 6.00

input: Give recorded pIC50 with human TREX2 (residues M44-A279) (Homo sapiens) for the following compound: CN(Cc1cncnc1)c1nc(C(=O)Nc2cnoc2)c(O)c(=O)n1C
output: 4.00 to 5.00
